- target: PICK1, Q9NRD5
- Sequence (Q9NRD5 17-115): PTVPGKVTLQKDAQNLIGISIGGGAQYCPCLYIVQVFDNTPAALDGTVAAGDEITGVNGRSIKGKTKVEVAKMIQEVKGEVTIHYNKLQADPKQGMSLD
- experiment: holdup assay
- Design: key: below the threshold = too weak to quantify, mostly under pKd 3.1 to 4
- setup.conditions: plain residues with an end cap or a label only (N-terminal biotin on a linker: ttds)
observation.type: pKd

Some entries whose results are on file:
                          binder       measured_value
0    VLRLQSETSV [VANGL1, Q8TAA9]  below the threshold
1     RSLEEEESQL [GRASP, Q7Z6J2]                 3.59
2  IDNDTESTAL [ARHGAP17, Q68EM7]  below the threshold
3      ERKLSSESQV [LRP4, O75096]  below the threshold

The record that follows has no pKd shown yet.
Task: What does the data say about its pKd? Entry: QSARYRDTEL [TJP2, Q9UDY2]
Result: below the threshold
